Measured pEC50 values are reported for all entries that follow.
biological target: F508delCFTR (Homo sapiens, UniProt P13569, DEL508-508); construct: expressed in transfected cells; host or cells: CFBE41o- human lung-derived epithelial cells (CFBE4lo-F508delCFTR-HRP), doxycycline-inducible; test: Cell Surface Expression-Horse Radish Peroxidase (CSE-HRP) Assay; format: cell-based; details: with co-corrector (2 μM of 3-[(2R,4R)-4-({[1-(2,2-difluoro-1,3-benzodioxol-5-yl)cyclopropyl]carbonyl}amino)-7-methoxy-3,4-dihydro-2H-chromen-2-yl]benzoic acid); read-out: EC50 (with co-corrector)
Sequence (P13569 with tags, fused parts or gaps DEL508-508): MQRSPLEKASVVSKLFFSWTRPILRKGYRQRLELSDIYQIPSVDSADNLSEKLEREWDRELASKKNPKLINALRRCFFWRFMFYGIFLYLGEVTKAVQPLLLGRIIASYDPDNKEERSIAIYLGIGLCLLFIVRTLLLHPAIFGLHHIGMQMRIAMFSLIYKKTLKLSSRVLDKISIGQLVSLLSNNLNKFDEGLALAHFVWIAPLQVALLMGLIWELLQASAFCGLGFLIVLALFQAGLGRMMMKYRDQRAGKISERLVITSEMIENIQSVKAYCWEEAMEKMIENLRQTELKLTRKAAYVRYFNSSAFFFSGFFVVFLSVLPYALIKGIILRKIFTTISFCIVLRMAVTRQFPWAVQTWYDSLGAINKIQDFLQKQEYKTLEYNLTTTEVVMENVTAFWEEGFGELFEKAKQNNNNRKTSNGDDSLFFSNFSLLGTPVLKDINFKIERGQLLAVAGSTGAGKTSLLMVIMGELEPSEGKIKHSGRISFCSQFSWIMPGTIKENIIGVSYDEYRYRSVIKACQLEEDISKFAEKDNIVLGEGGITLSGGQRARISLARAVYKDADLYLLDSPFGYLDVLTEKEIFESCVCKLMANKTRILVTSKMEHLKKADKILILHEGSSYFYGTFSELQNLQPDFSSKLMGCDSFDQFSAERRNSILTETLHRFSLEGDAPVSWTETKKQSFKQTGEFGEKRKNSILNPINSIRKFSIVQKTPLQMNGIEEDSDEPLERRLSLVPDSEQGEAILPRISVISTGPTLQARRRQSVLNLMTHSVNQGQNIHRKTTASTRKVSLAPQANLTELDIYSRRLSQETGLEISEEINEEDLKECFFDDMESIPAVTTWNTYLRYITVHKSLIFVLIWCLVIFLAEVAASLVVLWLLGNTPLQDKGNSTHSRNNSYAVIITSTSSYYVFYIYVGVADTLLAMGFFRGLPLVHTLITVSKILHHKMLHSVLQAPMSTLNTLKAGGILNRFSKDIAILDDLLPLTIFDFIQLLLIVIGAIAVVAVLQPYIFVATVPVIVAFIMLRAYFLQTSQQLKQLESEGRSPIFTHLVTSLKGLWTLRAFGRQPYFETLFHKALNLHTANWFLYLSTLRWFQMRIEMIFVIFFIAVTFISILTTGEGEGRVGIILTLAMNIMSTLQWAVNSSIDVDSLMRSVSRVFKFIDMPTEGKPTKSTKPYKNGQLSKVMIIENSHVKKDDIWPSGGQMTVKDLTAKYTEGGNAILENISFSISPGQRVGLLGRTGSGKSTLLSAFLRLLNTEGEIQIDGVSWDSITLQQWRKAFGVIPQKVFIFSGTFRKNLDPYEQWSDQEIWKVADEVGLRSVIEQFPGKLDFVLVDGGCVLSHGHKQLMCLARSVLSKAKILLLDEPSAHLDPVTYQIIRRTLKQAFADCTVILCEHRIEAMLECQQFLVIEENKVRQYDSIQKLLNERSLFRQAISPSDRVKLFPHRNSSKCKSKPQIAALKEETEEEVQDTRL
pEC50: −log10 of the molar value.

// worked examples, pEC50 included
- MOLECULE: "COc1ncc(C(F)(F)F)cc1CN[C@H]1[C@H](C(C)(C)C)[C@@H](C(=O)O)N(C(=O)[C@H](C)c2ccccc2)[C@H]1c1cccnc1OC"
  pEC50: "5.00 to 6.00"
- MOLECULE: "COc1nc2ccccc2cc1CN[C@H]1[C@H](C(C)(C)C)[C@@H](C(=O)O)N(C(=O)C2CCOCC2)[C@H]1c1cccnc1N(C)C"
  pEC50: "5.00 to 6.00"
- MOLECULE: "COc1ncc(C2(C)CC2)cc1CN[C@H]1[C@H](C(C)(C)C)[C@@H](C(=O)O)N(C(=O)C2CCCCC2)[C@H]1c1ccccc1"
  pEC50: "5.00 to 6.00"
- MOLECULE: "COc1ncc(C2CCC2)cc1CN[C@H]1[C@H](C(C)(C)C)[C@@H](C(=O)O)N(C(=O)C2CCCC(C(F)(F)F)C2)[C@H]1c1ccccc1 (stereo partly drawn)"
  pEC50: "> 6.00"
- MOLECULE: "CC(C)(C)[C@H]1[C@H](NCc2ccc3c(c2)OCCCO3)[C@H](c2ccccc2)N(C(=O)C2CCCCC2)[C@@H]1C(=O)O"
  pEC50: "5.00 to 6.00"
- MOLECULE: "COc1ccc(C23CC(C2)C3)cc1CN[C@H]1[C@H](C(C)(C)C)[C@@H](C(=O)O)N(C(=O)OC(C)C)[C@H]1c1ccccc1C(C)C"
  pEC50: "> 6.00"

Next molecule, pEC50 to be filled in.
query: Query (molecule): COc1ccc(C(F)(F)F)cc1CN[C@@H]1[C@@H](C(C)(C)C)[C@@H](C(=O)O)N(C(=O)C2CCCCC2)[C@H]1c1ccccc1 ; field requested: pEC50
result: 5.00 to 6.00

====

Measured EC50 values are reported for all entries that follow.
molecular target: F508delCFTR (Homo sapiens, UniProt P13569, DEL508-508); construct: expressed in transfected cells; host or cells: CFBE41o- human lung-derived epithelial cells (CFBE4lo-F508delCFTR-HRP), doxycycline-inducible; assay: Cell Surface Expression-Horse Radish Peroxidase (CSE-HRP) Assay; assay type: cell-based; conditions: test compound without co-corrector; read-out: EC50 (without co-corrector)

query: For the record COc1ncc(C(F)(F)F)cc1CN[C@H]1[C@H](C(C)(C)C)[C@@H](C(=O)O)N(C(=O)[C@@H]2CCCO2)[C@H]1c1ccccc1C(C)C [Example 95] , what value of EC50 is listed for F508delCFTR (Homo sapiens, UniProt P13569, DEL508-508)?
result: < 1 µM

query: Try this molecule next: COc1ccc(C(C)(C)C)cc1CN[C@H]1[C@H](C(C)(C)C)[C@@H](C(=O)O)N(C(=O)C2CC3CCC(C2)O3)[C@H]1c1ccccc1 (stereo partly drawn) [Example I-172]
result: 1 to 10 µM

query: Try this molecule next: COc1nc(C(C)(C)C)ccc1CN[C@H]1[C@H](C(C)(C)C)[C@@H](C(=O)O)N(C(=O)Cc2ccccc2C)[C@H]1c1ccccc1 [II-429]
result: < 1 µM

query: Try this molecule next: CC(C)(C)[C@H]1[C@H](NCc2ccc(C(F)(F)F)cc2F)[C@H](c2ccccc2)N(C(=O)C2CCCCC2)[C@@H]1C(=O)O [III-136]
result: > 10 µM

query: Try this molecule next: CO[C@@H](C(=O)N1[C@H](C(=O)O)[C@@H](C(C)(C)C)[C@H](Nc2cc(C(F)(F)F)cc(C)n2)[C@@H]1c1ccccc1)c1ccccc1 [III-78]
result: > 10 µM

query: Try this molecule next: COc1ncc(C2CCC2)cc1CN[C@H]1[C@H](C(C)(C)C)[C@@H](C(=O)O)N(C(=O)[C@@H]2CCCCO2)[C@H]1c1ccccc1C [II-585]
result: 1 to 10 µM

====

molecular target: F508delCFTR (Homo sapiens, UniProt P13569, DEL508-508); construct: expressed in transfected cells; host or cells: CFBE41o- human lung-derived epithelial cells (CFBE4lo-F508delCFTR-HRP), doxycycline-inducible; assay: Cell Surface Expression-Horse Radish Peroxidase (CSE-HRP) Assay; type: cell-based; details: test compound without co-corrector; read-out: EC50 (without co-corrector)
REPORTED ENDPOINT: EC50

// worked examples, EC50 included
- COMPOUND: "COc1ccc(C23CC(C2)C3)cc1CN[C@H]1[C@H](C(C)(C)C)[C@@H](C(=O)O)N(C(=O)OC(C)C)[C@H]1c1cccnc1OC"
  REPORTED ENDPOINT: "EC50"
  OBSERVED MEASUREMENT: "1000 to 10000 nM"
- COMPOUND: "CC(C)(C)[C@H]1[C@H](Nc2cc(C(F)(F)F)cc(C3CCC3)n2)[C@H](c2ccccc2)N(C(=O)C2CCCCC2)[C@@H]1C(=O)O"
  REPORTED ENDPOINT: "EC50"
  OBSERVED MEASUREMENT: "1000 to 10000 nM"
- COMPOUND: "COc1ccc(C(C)(C)C)cc1CN[C@H]1[C@H](C(C)(C)C)[C@@H](C(=O)O)N(C(=O)[C@@H]2CCCCO2)[C@H]1c1cccnc1OC"
  REPORTED ENDPOINT: "EC50"
  OBSERVED MEASUREMENT: "1000 to 10000 nM"
- COMPOUND: "CC(C)(C)[C@H]1[C@H](NCc2ccccc2C(F)F)[C@H](c2ccccc2)N(C(=O)C2CCCCC2)[C@@H]1C(=O)O"
  REPORTED ENDPOINT: "EC50"
  OBSERVED MEASUREMENT: "< 1000 nM"
- COMPOUND: "CC(C)(C)[C@@H]1[C@@H](Nc2cc(C(F)(F)F)ccn2)[C@@H](c2ccccc2)N(C(=O)C2CCCCC2)[C@H]1C(=O)O (racemic)"
  REPORTED ENDPOINT: "EC50"
  OBSERVED MEASUREMENT: "1000 to 10000 nM"

Next compound, EC50 to be filled in.
query: Query (compound): COc1ccc(C(C)(C)C)cc1CN[C@H]1[C@H](C(C)(C)C)[C@@H](C(=O)O)N(C(=O)[C@@H]2CCCN(C(=O)OC(C)C)C2)[C@H]1c1ccccc1 ; field requested: EC50
result: 1000 to 10000 nM

====

Measured EC50 values are reported for all entries that follow.
biological target: F508delCFTR (Homo sapiens, UniProt P13569, DEL508-508); construct: expressed in transfected cells; host or cells: CFBE41o- human lung-derived epithelial cells (CFBE4lo-F508delCFTR-HRP), doxycycline-inducible; experiment: Cell Surface Expression-Horse Radish Peroxidase (CSE-HRP) Assay; format: cell-based; conditions: CSE-HRP; test compound without co-corrector; read-out: EC50 (without co-corrector)

- COMPOUND: "COc1ccc(C(C)(C)C)cc1CN[C@H]1[C@H](C(C)(C)C)[C@@H](C(=O)O)N(C(=O)Cc2ccc(O)cc2)[C@H]1c1ccccc1 [II-195]"
  EC50: "1000 to 10000 nM"
- COMPOUND: "COc1ccc(C2CCC2)cc1CN[C@H]1[C@H](C(C)(C)OC)[C@@H](C(=O)O)N(C(=O)C2CCCCC2)[C@H]1c1ccccc1 [II-255]"
  EC50: "< 1000 nM"
- COMPOUND: "CC(C)(C)[C@H]1[C@H](NCc2cccc(C(F)(F)F)c2)[C@H](c2ccccc2)N(C(=O)C2CCCCC2)[C@@H]1C(=O)O [II-122]"
  EC50: "1000 to 10000 nM"

query: Query (compound): COc1ccc(C(C)(C)C)cc1CN[C@H]1[C@H](C(C)(C)C)[C@@H](C(=O)O)N(C(=O)Cc2ccc(C)cc2)[C@H]1c1ccccc1 [II-204] ; field requested: EC50
result: < 1000 nM

query: Try this compound next: COc1cc(C)ccc1CN[C@H]1[C@H](C(C)(C)C)[C@@H](C(=O)O)N(C(=O)[C@@H]2CCCCO2)[C@H]1c1cccnc1OC [II-123]
result: 1000 to 10000 nM

query: Try this compound next: Cc1ccc(C#N)c(N[C@H]2[C@H](C(C)(C)C)[C@@H](C(=O)O)N(C(=O)C3CCCCC3)[C@H]2c2ccccc2)n1 [II-146]
result: 1000 to 10000 nM

query: Try this compound next: COc1ccc(C(C)(C)C)cc1CN[C@H]1[C@H](C(C)(C)C)[C@@H](C(=O)O)N(C(=O)[C@H](C)c2ccccc2)[C@H]1c1ccccc1 [II-315]
result: < 1000 nM

query: Try this compound next: COc1cc(C(C)(C)C)ccc1CN[C@H]1[C@H](C(C)(C)C)[C@@H](C(=O)O)N(C(=O)C2CCCCC2)[C@H]1c1ccccc1 [II-103]
result: 1000 to 10000 nM

query: Try this compound next: COc1cc(C(F)(F)F)ccc1CN[C@H]1[C@H](C(C)(C)C)[C@@H](C(=O)O)N(C(=O)[C@@H](OC)c2ccccc2)[C@H]1c1ccccc1 [II-65]
result: 1000 to 10000 nM

query: Try this compound next: COc1ccc(C(C)(C)C)cc1CN[C@H]1[C@H](C(C)(C)C)[C@@H](C(=O)O)N(C(=O)C(OC)c2cccc(Cl)c2)[C@H]1c1ccccc1 (single isomer, unassigned) [II-271]
result: 1000 to 10000 nM

query: Try this compound next: COc1cc2c(cc1CN[C@H]1[C@H](C(C)(C)C)[C@@H](C(=O)O)N(C(=O)C3CCCCC3)[C@H]1c1ccccc1)OCO2 [II-116]
result: 1000 to 10000 nM

query: Try this compound next: COc1ncc(C2CCC2)cc1CN[C@H]1[C@H](C(C)(C)C)[C@@H](C(=O)O)N(C(=O)[C@H]2CCC[C@@H](C(F)(F)F)C2)[C@H]1c1ccccc1 (relative stereo) [Example I-260]
result: 1000 to 10000 nM
